# System under test: T1, human CD16A-Fc^48R/158V fusion protein (human, UniProt P08637 17-208, limits assumed)
# T1 construct: Secreted soluble fusion made in HEK-293 cells; also called CD16-Fc; CD16A Fc-fusion protein; not shown: Fc portion of human IgG1
# T1 sequence (P08637 17-208 L66R/F176V limits assumed): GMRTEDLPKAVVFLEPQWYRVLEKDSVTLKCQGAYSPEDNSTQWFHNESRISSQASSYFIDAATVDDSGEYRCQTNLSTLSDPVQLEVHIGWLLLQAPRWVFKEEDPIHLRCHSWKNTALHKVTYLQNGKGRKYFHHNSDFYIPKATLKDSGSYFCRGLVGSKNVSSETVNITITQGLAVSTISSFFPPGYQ
# Experiment description: SPR, BIAcore 2000, CD16A-Fc immobilized on CM5, 1:1 Langmuir
Hi, to clarify the labels: Criterion met covers koff from 0.004 s⁻¹ upward, Criterion not met covers anything below 0.004 s⁻¹.

Binder	Label class
human anti-CD16A scFv 50NI (scFv, also called clone 50NI; parental clone) scFv: EVQLVQSGAEVKKPGESLKVSCKASGYTFTSYYMHWVRQAPGQGLEWMGIINPSGGSTSYAQKFQGRVTMTRDTSTSTVYMELSSLRSEDTAVYYCARGSAYYYDFADYWGQGTLVTVSSGSASAPTLKLEEGEFSEARVSYELMQPPSVSVSSGQTASIPCSGDKLEEKYVSWYQQRPGQSPVLVIYQDNKRPSGIPERFSGSNSGNTATLTISGTQAMDEADYYCQVWDNYSVLFGGGTKLTVLGQPKAAPSVTLFPPSAAAGSEQKLISEEDLNSHHHHHH	Criterion met
affinity matured anti-CD16A scFv 3-LB6 (scFv, IMAC-purified from pSKK2) scFv: EVQLVQSGAEVKKPGESLKVSCKASGYTFTSYYMHWVRQAPGQGLEWMGIINPSGGSTSYAQKFQGRVTMTRDTSTSTVYMELSSLRSEDTAVYYCARGSAYYYDFADYWGQGTLVTVSSGSASAPTLKLEEGEFSEARVQAVLTQPPSVSVAPGQTARIPCEGNNIGSKNVHWYRQKPGQVPVLVMYDDSDRPSGIPERFSGSNSGNTATLTISGTQAMDEADYYCQVWDNYSVLFGGGTKLTVLGQPKAAPSVTLFPPSAAAGSEQKLISEEDLNSHHHHHH	Criterion met
affinity matured anti-CD16A scFv 4-LS14 (scFv, IMAC-purified from pSKK2) scFv: EVQLVQSGAEVKKPGESLKVSCKASGYTFTSYYMHWVRQAPGQGLEWMGIINPSGGSTSYAQKFQGRVTMTRDTSTSTVYMELSSLRSEDTAVYYCARGSAYYYDFADYWGQGTLVTVSSGSASAPTLKLEEGEFSEARVSYELTQPPSVSVTPGQTATITCGANDIGKRNVHWYQQRPGQSPVLVIYQDNKRPSGIPERFSGSNSGNTATLTISGTQAMDEADYYCQVWDNYSVLFGGGTKLTVLGQPKAAPSVTLFPPSAAAGSEQKLISEEDLNSHHHHHH	Criterion met
affinity matured anti-CD16A scFv 3-LB3 (scFv, IMAC-purified from pSKK2) scFv: EVQLVQSGAEVKKPGESLKVSCKASGYTFTSYYMHWVRQAPGQGLEWMGIINPSGGSTSYAQKFQGRVTMTRDTSTSTVYMELSSLRSEDTAVYYCARGSAYYYDFADYWGQGTLVTVSSGSASAPTLKLEEGEFSEARVSYELTQPLSESVAQGQTARITCGGNNIESRNVHWYQQKPGQAPVLVIYRDNNRPSGIPERFSGSNSGNMATLTISRAQAGDAADYYCQVWDNYTVLFGGGTKLTVLGQPKAAPSVTLFPPSAAAGSEQKLISEEDLNSHHHHHH	Criterion not met
affinity matured anti-CD16A scFv 4-LS21 (scFv, IMAC-purified from pSKK2) scFv: EVQLVQSGAEVKKPGESLKVSCKASGYTFTSYYMHWVRQAPGQGLEWMGIINPSGGSTSYAQKFQGRVTMTRDTSTSTVYMELSSLRSEDTAVYYCARGSAYYYDFADYWGQGTLVTVSSGSASAPTLKLEEGEFSEARVQPVLTQPSSVSVAPGQTATISCGGHNIGSKNVHWYQQRPGQSPVLVIYQDNKRPSGIPERFSGSNSGNTATLTISGTQAMDEADYYCQVWDNYSVLFGGGTKLTVLGQPKAAPSVTLFPPSAAAGSEQKLISEEDLNSHHHHHH	Criterion met
